Just for reference, the supplement of paper PMC7156485 is where these values come from.

Test system: TDF;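 further: TDF denotes transformed human dermal fibroblasts of mesenchymal origin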
EXPERIMENTAL DETAILS: cell number relative to DMSO (% of DMSO); higher = more cells (less growth inhibition / toxicity)
COND: concentration: 10 µM; 24 h
Decision: cell number compared against 100; not below it gives Satisfied, below it gives Not satisfied.

Below, 4 molecules whose answers are already recorded.
| MOLECULE | CATEGORY |
| --- | --- |
| CC1CC2OC2C=CC=CC(=O)Cc2c(Cl)c(O)cc(O)c2C(=O)O1 (configuration not stated) | Not satisfied |
| CC1CCN(CCC2CCCN2S(=O)(=O)c2cccc(O)c2)CC1.Cl (configuration not stated) | Satisfied |
| CCC(=O)OC1(C(=O)CCl)C(C)CC2C3CCC4=CC(=O)C=CC4(C)C3(F)C(O)CC21C (configuration not stated) [Clobetasol Propionate] | Satisfied |
| Cn1ccc(NC(=O)c2cc(Oc3ccc(C(=O)N4CCC4)c(F)c3)c3c(c2)OC(C)(C)C3)n1 | Not satisfied |

Prompt: Item CCC1(O)CC(OC2CC(N(C)C)C(OC3CC(O)C(OC4CCC(=O)C(C)O4)C(C)O3)C(C)O2)c2c(cc3c(c2O)C(=O)c2c(O)cccc2C3=O)C1C(=O)OC (configuration not stated) with cell number of 100 or above?
Response: Not satisfied

Prompt: Item Cc1ccccc1-n1c(Cn2nc(-c3cccc(O)c3)c3c(N)ncnc32)nc2cccc(C)c2c1=O with cell number of 100 or above?
Response: Not satisfied

Prompt: Item CCCCCC(=O)C=CC1C(O)CC(=O)C1CC=CCCCC(=O)O (configuration not stated) [15-keto-prostaglandin E2] with cell number of 100 or above?
Response: Satisfied
